Assay: in vitro
Details: rat
For each record, check the reported IC50: if it is below 40 µM write y, else write n.

* CCN(CC)CCCC(C)Nc1ccnc2cc(Cl)ccc12 (centres unmarked) [Chloroquine (Diphosphate), Chloroquine] | n

**Query** # TODO verify IC50 < 40 µM strictly for this molecule: COc1ccc(Cl)cc1C(=O)NCCc1ccc(S(=O)(=O)NC(=O)NC2CCCCC2)cc1 [Glybenclamide]
**Result** n

**Query** Input CC(=O)[C@H]1CC[C@H]2[C@@H]3CC[C@H]4C[C@](C)(O)CC[C@]4(C)[C@H]3CC[C@]12C ; condition: IC50 strictly below 40 µM. Does it hold?
**Result** y

**Query** Consider CC(C)(C)NC(=O)[C@@H]1CN(Cc2cccnc2)CCN1C[C@@H](O)C[C@@H](Cc1ccccc1)C(=O)N[C@H]1c2ccccc2C[C@H]1O [Indinavir (Sulfate), Indinavir] . Does its IC50 lie strictly below 40 µM?
**Result** n

**Query** Strictly below 40 µM: is that where IC50 of C[C@@H]1[C@H](O)[C@@H](C)/C=C/C=C/C=C/C=C/C=C/C=C/C=C/[C@H](O[C@@H]2O[C@H](C)[C@@H](O)[C@H](N)[C@@H]2O)C[C@@H]2O[C@](O)(C[C@@H](O)C[C@@H](O)[C@H](O)CC[C@@H](O)C[C@@H](O)CC(=O)O[C@H]1C)C[C@H](O)[C@H]2C(=O)O sits?
**Result** y

**Query** # strict comparison: is reported IC50 < 40 µM? input = CNCCC=C1c2ccccc2CCc2ccccc21
**Result** y

**Query** Find out if reported IC50 for CC(C)CN(C[C@@H](O)[C@H](Cc1ccccc1)NC(=O)O[C@H]1CCOC1)S(=O)(=O)c1ccc(N)cc1 is less than 40 µM
**Result** n

**Query** Hello, I'm reviewing records and need to know if IC50 of CCCSc1ccc2nc(NC(=O)OC)[nH]c2c1 is below 40 µM. Could you check?
**Result** y

**Query** Lab log: compare recorded IC50 with 40 µM; is it strictly lower for CC(=O)N1CCN(c2ccc(OCC3COC(Cn4ccnc4)(c4ccc(Cl)cc4Cl)O3)cc2)CC1 (centres unmarked) ?
**Result** n

**Query** Here's an entry: COc1cc(NC(C)CCCN)c2ncccc2c1 (centres unmarked) . Is its IC50 below 40 µM?
**Result** n

**Query** Take the molecule CN(C)CCC=C1c2ccccc2CCc2ccccc21 and say whether its IC50 is less than 40 µM.
**Result** n
